- tgt: MNK1a (Homo sapiens (Human), UniProt Q9BUB5)
- Sequence (Q9BUB5 other isoform, or with tags, fused parts or gaps): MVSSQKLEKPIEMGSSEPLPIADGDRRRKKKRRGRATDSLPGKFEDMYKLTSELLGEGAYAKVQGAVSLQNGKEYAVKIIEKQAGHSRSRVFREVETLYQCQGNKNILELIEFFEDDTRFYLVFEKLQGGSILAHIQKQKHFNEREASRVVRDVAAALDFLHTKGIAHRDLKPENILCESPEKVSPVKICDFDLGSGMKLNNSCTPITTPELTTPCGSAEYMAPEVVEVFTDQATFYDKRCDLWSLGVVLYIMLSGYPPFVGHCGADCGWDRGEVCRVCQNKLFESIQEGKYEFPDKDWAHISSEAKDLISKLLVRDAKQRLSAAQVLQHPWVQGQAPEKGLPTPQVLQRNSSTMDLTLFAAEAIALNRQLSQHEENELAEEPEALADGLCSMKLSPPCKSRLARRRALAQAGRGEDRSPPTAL
- assay procedure: MNK1 in vitro kinase assay (Assay 3), Z'-LYTE
- Format: biochemical
- assay context: compound concentration of 1 μM, read-out: MNK1 % INH
readout label: inhibition at 1 µM (%)

# compound, inhibition at 1 µM (%)
data = [
    ("CO[C@H]1COC[C@@H]1Oc1ncccc1Nc1ncnc2cc(N=S3(=O)CCCC3)cc(C)c12 (racemic) [Example 2.39]", 86),
    ("CO[C@@H]1COC[C@@H]1Oc1cc(F)ccc1Nc1ncnc2cc(N=S3(=O)CCCC3)cc(C)c12 (racemic) [Example 2.10]", 105),
    ("CO[C@H]1COC[C@H]1Oc1ncccc1Nc1ncnc2cc(N=S3(=O)CCCC3)cc(C)c12 (single isomer, unassigned) [Example 14.1]", 97),
    ("Cc1cc(N=S(C)(=O)C(C)C)cc2ncnc(Nc3ccc(F)cc3O[C@@H]3COC[C@@H]3O)c12 (mixture of isomers) [Example 2.71]", 94),
    ("CCN1C[C@@H](OC)[C@H](Oc2cc(F)ccc2Nc2ncnc3cc(N=S4(=O)CCCC4)cc(C)c23)C1 [Example 4.3]", 54),
]

[P] Cc1cc(N=S2(=O)CCCC2)cc2ncnc(Nc3ccc(F)cc3O[C@H]3COC[C@@H]3O)c12 [Example 2.29]
[Q] CO[C@@H]1CN(S(C)(=O)=O)C[C@H]1Oc1ncccc1Nc1ncnc2cc(N=S3(=O)CCCC3)cc(C)c12 [Example 6.5]
Would you let me know which has the greater inhibition at 1 µM value, P or Q ? State the label of the item chosen.
P

These measurements were taken from patent US10093660B2.
